Experiment: 4 h pharmacokinetic pilot study in wild-type, Abcb1a/1b;Abcg2-/- and Slco1a/1b-/- mice
Format: in vivo
Settings: male, FVB (Slco1a/1b-/-), mouse, in vivo, po, 10 mg/kg, Ctestis
Measured Parameter: concentration at 4 h (ng/g)
Provide only the numeric value, understood in ng/g.

Give the reported value of concentration at 4 h for this record: "COc1ccc(CN2C3CC2CN(c2ccc(-c4cc(OCC(C)(C)O)cn5ncc(C#N)c45)cn2)C3)cn1"
1120

###

Assay: 4 h pharmacokinetic pilot study in wild-type, Abcb1a/1b;Abcg2-/- and Slco1a/1b-/- mice
Format: in vivo
Conditions: male, FVB background, wild-type, mouse, in vivo, po, 10 mg/kg
Measured Parameter: Cmax (ng/mL)
Field: numeric (ng/mL). Do not append units.

Report Cmax for "COc1ccc(CN2C3CC2CN(c2ccc(-c4cc(OCC(C)(C)O)cn5ncc(C#N)c45)cn2)C3)cn1"
7860
